Target: Serine/threonine-protein kinase WNK2 (Homo sapiens) (UniProt Q9Y3S1)
Sequence (Q9Y3S1 whole entry): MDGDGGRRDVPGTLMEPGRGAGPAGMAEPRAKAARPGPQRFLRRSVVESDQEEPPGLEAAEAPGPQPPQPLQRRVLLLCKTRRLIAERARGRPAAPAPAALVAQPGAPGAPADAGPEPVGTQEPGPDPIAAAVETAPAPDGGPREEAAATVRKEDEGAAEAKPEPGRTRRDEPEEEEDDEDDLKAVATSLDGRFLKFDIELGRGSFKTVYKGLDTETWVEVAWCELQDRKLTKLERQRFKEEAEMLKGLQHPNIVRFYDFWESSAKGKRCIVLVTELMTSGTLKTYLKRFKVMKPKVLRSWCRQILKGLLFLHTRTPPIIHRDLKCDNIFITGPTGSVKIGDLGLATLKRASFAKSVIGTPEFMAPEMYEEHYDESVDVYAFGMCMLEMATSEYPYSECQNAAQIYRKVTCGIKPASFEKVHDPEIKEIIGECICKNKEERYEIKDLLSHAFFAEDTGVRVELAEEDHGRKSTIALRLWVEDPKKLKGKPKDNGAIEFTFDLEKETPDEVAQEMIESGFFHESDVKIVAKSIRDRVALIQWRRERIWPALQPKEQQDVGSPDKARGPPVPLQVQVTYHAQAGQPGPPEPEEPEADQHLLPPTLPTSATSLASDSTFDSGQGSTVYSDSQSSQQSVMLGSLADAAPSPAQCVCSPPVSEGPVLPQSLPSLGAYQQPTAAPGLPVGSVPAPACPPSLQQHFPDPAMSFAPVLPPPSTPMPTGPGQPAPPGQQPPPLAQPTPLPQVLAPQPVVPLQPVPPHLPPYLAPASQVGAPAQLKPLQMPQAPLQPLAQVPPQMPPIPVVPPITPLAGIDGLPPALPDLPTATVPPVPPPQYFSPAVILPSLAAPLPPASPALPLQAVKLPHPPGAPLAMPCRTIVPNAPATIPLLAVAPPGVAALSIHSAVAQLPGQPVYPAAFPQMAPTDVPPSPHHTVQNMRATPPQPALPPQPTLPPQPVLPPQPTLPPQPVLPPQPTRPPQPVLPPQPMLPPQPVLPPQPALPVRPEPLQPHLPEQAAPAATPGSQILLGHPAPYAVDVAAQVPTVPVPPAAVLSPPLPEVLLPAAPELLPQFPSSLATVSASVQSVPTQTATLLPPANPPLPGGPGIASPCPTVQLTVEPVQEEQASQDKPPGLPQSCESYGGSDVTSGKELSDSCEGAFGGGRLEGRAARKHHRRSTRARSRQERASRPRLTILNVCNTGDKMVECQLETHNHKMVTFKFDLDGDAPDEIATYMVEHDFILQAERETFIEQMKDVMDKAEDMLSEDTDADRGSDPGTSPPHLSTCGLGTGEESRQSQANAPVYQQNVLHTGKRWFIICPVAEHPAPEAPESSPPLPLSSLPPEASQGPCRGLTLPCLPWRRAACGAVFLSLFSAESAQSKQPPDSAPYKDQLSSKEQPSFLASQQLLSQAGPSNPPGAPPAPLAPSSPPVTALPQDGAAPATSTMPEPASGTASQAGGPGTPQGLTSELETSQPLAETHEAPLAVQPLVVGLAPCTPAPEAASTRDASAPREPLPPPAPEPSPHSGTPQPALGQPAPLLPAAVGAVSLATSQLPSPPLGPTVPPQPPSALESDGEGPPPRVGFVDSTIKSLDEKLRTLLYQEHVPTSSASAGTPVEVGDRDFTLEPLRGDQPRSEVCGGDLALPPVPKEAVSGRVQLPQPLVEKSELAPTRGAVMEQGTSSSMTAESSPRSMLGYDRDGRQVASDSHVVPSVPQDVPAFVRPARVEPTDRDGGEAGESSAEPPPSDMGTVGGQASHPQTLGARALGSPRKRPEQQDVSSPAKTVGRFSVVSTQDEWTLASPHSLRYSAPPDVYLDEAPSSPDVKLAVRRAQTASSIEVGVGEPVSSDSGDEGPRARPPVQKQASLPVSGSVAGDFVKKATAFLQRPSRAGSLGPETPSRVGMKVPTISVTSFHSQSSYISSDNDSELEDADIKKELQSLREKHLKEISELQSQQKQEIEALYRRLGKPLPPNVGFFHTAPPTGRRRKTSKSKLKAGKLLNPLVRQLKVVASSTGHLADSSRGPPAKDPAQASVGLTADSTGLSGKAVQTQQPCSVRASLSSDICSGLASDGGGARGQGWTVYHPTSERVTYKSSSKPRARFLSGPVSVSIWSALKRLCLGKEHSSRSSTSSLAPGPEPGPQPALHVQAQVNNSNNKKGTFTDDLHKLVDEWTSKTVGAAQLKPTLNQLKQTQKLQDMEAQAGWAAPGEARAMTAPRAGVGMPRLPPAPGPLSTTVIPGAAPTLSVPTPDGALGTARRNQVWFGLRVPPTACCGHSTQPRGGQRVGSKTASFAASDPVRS
Settings: at 10 µM
Description: Millipore: Percentage of residual kinase activity of WNK2 at 10uM relative to control. Control inhibitor: Phosphoric acid* at 0.3uM. Buffer: 8 mM MOPS pH 7.0, 0.2 mM EDTA
// classify: if (residual activity < 80%) met else not met

Some solved cases for reference:
structure	discrete label
CC(C)N(CCC(=O)c1ccc2ccccc2c1)Cc1ccccc1	not met
COc1cc2nccc(Oc3ccc(NC(=O)Nc4cc(C)on4)c(Cl)c3)c2cc1OC	met
O=C1Cc2c([nH]c3ccc(Br)cc23)-c2ccccc2N1	met
CCOC(=O)c1c(C)[nH]c(/C=C2\C(=O)Nc3ccccc32)c1C	not met
COc1ccc2c(c1)c(C1=C(c3c[nH]c4ccccc34)C(=O)NC1=O)cn2CCCN(C)C	met
CC(C)(C)n1nc(Cc2cccc3ccccc23)c2c(N)ncnc21	met
Nc1ncnc2c1cnn2-c1ccccc1	not met
N#C/C(=C1/Nc2ccccc2S1)c1ccnc(NCCc2cccnc2)n1	met
COc1ccc(CNC(=O)Nc2ncc([N+](=O)[O-])s2)cc1	met
O=c1cc(N2CCOCC2)oc2c(-c3ccccc3)cccc12	met

Dear reviewer, please state whether Nc1n[nH]c2nc3ccccc3nc12 has residual activity strictly beneath 80%.
not met

Dear reviewer, please state whether COc1ccc(COc2ccc(Cc3cnc(N)nc3N)cc2OC)cc1 has residual activity strictly beneath 80%.
met

Dear reviewer, please state whether O=C(c1ccccc1)c1ccc(N2CCOCC2)cc1O has residual activity strictly beneath 80%.
not met

Dear reviewer, please state whether CC(C)(C)c1nc2c3ccc(F)cc3c3c(=O)[nH]ccc3c2[nH]1 has residual activity strictly beneath 80%.
met

Dear reviewer, please state whether CC(C)c1nn(-c2c(Cl)cccc2Cl)c2nc(Cc3ccc(OCCO)cc3)[nH]c(=O)c12 has residual activity strictly beneath 80%.
not met

Dear reviewer, please state whether O=c1cc(N2CCOCC2)oc2c1ccc1ccccc12 has residual activity strictly beneath 80%.
not met

Dear reviewer, please state whether O=C1C(Cl)=C(N2C(=O)CCC2=O)C(=O)c2ccccc21 has residual activity strictly beneath 80%.
not met

Dear reviewer, please state whether O=C1NC(=O)c2c1c1c3ccccc3[nH]c1n1cncc21 has residual activity strictly beneath 80%.
met

Dear reviewer, please state whether Oc1cccc(-c2nc(N3CCOCC3)c3oc4ncccc4c3n2)c1 has residual activity strictly beneath 80%.
not met

Dear reviewer, please state whether CCN1/C(=C/C(C)=O)Sc2ccc(OC)cc21 has residual activity strictly beneath 80%.
met
